I'd appreciate it if you could supply EC50 values for the items below.
assay: Cytotoxicity against human Pa02C cells after 48 hrs by Alamar Blue-based assay; format: functional, cell-based

Look at this molecule and give its reported EC50. `Cc1ccc(S(=O)(=O)n2cccc2[C@@H]2NC(=O)[C@H](Cc3c[nH]c4ccccc34)NC(=O)C[C@@H](CCc3ccccc3)NC(=O)C/C=C/[C@@H]2C)cc1`
> 100 µM

Try this molecule too: `C[C@H]1/C=C/CC(=O)OCCCC(=O)N[C@@H](Cc2c[nH]c3ccccc23)C(=O)N[C@H]1c1ccccc1`
> 100 µM

Try `Cc1ccc(S(=O)(=O)n2cccc2[C@@H]2NC(=O)[C@H](Cc3c[nH]c4ccccc34)NC(=O)CCCOC(=O)C/C=C/[C@@H]2C)cc1` next.
> 100 µM

Now give it for `C[C@H]1/C=C/CC(=O)N[C@H](c2ccc(Cl)cc2)CC(=O)N[C@@H](Cc2c[nH]c3ccccc23)C(=O)N[C@H]1c1ccccc1` too.
22 µM

Now the molecule `Cc1ccc(S(=O)(=O)n2cccc2[C@@H]2NC(=O)[C@H](Cc3c[nH]c4ccccc34)NC(=O)C[C@@H](c3ccc(F)cc3)NC(=O)C/C=C/[C@@H]2C)cc1`
> 100 µM

###

test: Cytotoxicity against human Pa02C cells after 48 hrs by Alamar Blue-based assay; type: functional, cell-based
Answer each item with its documented EC50.

May I ask what EC50 has been recorded for `Cc1ccc(S(=O)(=O)n2cccc2[C@@H]2NC(=O)[C@H](Cc3c[nH]c4ccccc34)NC(=O)C[C@@H](c3ccc(C(F)(F)F)cc3)NC(=O)C/C=C/[C@@H]2C)cc1` ?
> 100 µM

What about this molecule? `Cc1ccc(S(=O)(=O)n2cccc2[C@@H]2NC(=O)[C@H](Cc3c[nH]c4ccccc34)NC(=O)CCNC(=O)C/C=C/[C@@H]2C)cc1`
58.4 µM

What would you report for `C[C@H]1/C=C/CC(=O)OCCCCC(=O)N[C@@H](Cc2c[nH]c3ccccc23)C(=O)N[C@H]1c1ccccc1` ?
> 50 µM

Now the molecule `Cc1ccc(S(=O)(=O)n2cccc2[C@@H]2NC(=O)[C@H](Cc3c[nH]c4ccccc34)NC(=O)CCCCOC(=O)C/C=C/[C@@H]2C)cc1`
> 100 µM

Another molecule: `Cc1ccc(S(=O)(=O)n2cccc2[C@@H]2NC(=O)[C@H](Cc3c[nH]c4ccccc34)NC(=O)CCCCNC(=O)C/C=C/[C@@H]2C)cc1`
> 100 µM

Note, next up: `Cc1ccc(S(=O)(=O)n2cccc2[C@@H]2NC(=O)[C@H](Cc3c[nH]c4ccccc34)NC(=O)C[C@@H](Cc3ccc(Cl)cc3)NC(=O)C/C=C/[C@@H]2C)cc1`
> 100 µM

And what about the molecule `Cc1ccc([C@@H]2CC(=O)N[C@@H](Cc3c[nH]c4ccccc34)C(=O)N[C@@H](c3cccn3S(=O)(=O)c3ccc(C)cc3)[C@@H](C)/C=C/CC(=O)N2)cc1` ?
> 100 µM

Now give it for `Cc1ccc(S(=O)(=O)n2cccc2[C@@H]2NC(=O)[C@H](Cc3c[nH]c4ccccc34)NC(=O)C[C@@H](c3ccc(Cl)cc3)NC(=O)C/C=C/[C@@H]2C)cc1` too.
> 100 µM

Thanks! And `Cc1ccc(S(=O)(=O)n2cccc2[C@@H]2NC(=O)[C@H](Cc3c[nH]c4ccccc34)NC(=O)C[C@@H](c3cccc(C(F)(F)F)c3)NC(=O)C/C=C/[C@@H]2C)cc1` ?
6.7 µM

Same for `C[C@H]1/C=C/CC(=O)N[C@H](c2ccc(C(F)(F)F)cc2)CC(=O)N[C@@H](Cc2c[nH]c3ccccc23)C(=O)N[C@H]1c1ccccc1`
58.5 µM

Consider next the molecule `Cc1ccc(S(=O)(=O)n2cccc2[C@@H]2NC(=O)[C@H](Cc3c[nH]c4ccccc34)NC(=O)CCCNC(=O)C/C=C/[C@@H]2C)cc1` in the same way.
35 µM

Do the same for `C[C@H]1/C=C/CC(=O)N[C@H](c2ccc(F)cc2)CC(=O)N[C@@H](Cc2c[nH]c3ccccc23)C(=O)N[C@H]1c1ccccc1` please
36.2 µM

Do the same for `Cc1ccc(S(=O)(=O)n2cccc2[C@@H]2NC(=O)[C@H](Cc3c[nH]c4ccccc34)NC(=O)C[C@H](CCc3ccccc3)NC(=O)C/C=C/[C@@H]2C)cc1` please
> 100 µM
